# Test system: behavioral toxicity
# protocol text: Toxicity (behavioral toxicity), rat (po)
# Assay type: in vivo
# recorded conditions: behavioral toxicity, Table b607
Entries annotated with measured Tox, TD50

Use the examples below as a reference point.
{"compound": "COC[C@@H](NC(C)=O)C(=O)NCc1ccc(/C=C/c2cccc(F)c2)cc1 [(R)-14]", "Tox, TD50": ">30 [0.25, 4.0] milligrams per kilogram"}
{"compound": "COC[C@@H](NC(C)=O)C(=O)NCc1ccc(COc2cccc(F)c2)cc1 [(R)-16]", "Tox, TD50": ">400 [0.5] milligrams per kilogram"}
{"compound": "COC[C@@H](NC(C)=O)C(=O)NCc1ccc(Oc2cccc(F)c2)cc1 [(R)-12]", "Tox, TD50": ">10 [0.25-4.0] milligrams per kilogram"}
{"compound": "COC[C@@H](NC(C)=O)C(=O)NCc1ccc(OCc2cccc(F)c2)cc1 [(R)-10]", "Tox, TD50": ">500 [0.5] milligrams per kilogram"}

Read the next record carefully.
Q: Can you look up the measured Tox, TD50 of COC[C@@H](NC(C)=O)C(=O)NCc1ccc(CCc2cccc(F)c2)cc1 [(R)-13] for me?
Ans: >30 [1] milligrams per kilogram

----------
# System: behavioral toxicity
# protocol text: Toxicity (behavioral toxicity), rat (po)
# Format: in vivo
# recorded conditions: behavioral toxicity, Table 3
Entries annotated with measured Tox, TD50

Use the examples below as a reference point.
{"molecule": "CC(=O)NC(C(=O)NCc1ccc(OCc2cccc(F)c2)cc1)c1ccccn1 (racemic) [(R,S)-9]", "system name": "behavioral toxicity", "Tox, TD50": ">30 [4] milligrams per kilogram"}
{"molecule": "CC(=O)NCC(=O)NCc1ccc(OCc2cccc(F)c2)cc1 [compound 5]", "system name": "behavioral toxicity", "Tox, TD50": ">500 [1.0] milligrams per kilogram"}
{"molecule": "COC[C@@H](NC(C)=O)C(=O)NCc1ccc(OCc2cccc(F)c2)cc1 [(R)-10]", "system name": "behavioral toxicity", "Tox, TD50": ">500 [0.5] milligrams per kilogram"}

Read the next record carefully.
Q: Can you look up the measured Tox, TD50 of CC(=O)N[C@@H](C)C(=O)NCc1ccc(OCc2cccc(F)c2)cc1 [(S)-6, reference compound] for me?
Ans: >30 [0.25 to milligrams per kilogram

----------
# Tested on: behavioral toxicity
# protocol text: Toxicity (behavioral toxicity), rat (po)
# Assay type: in vivo
# recorded conditions: time (h) in brackets, Table 2
readout kind: Tox, TD50

Use the examples below as a reference point.
{"compound": "COC[C@@H](NC(C)=O)C(=O)NCc1ccc(N=[N+]=[N-])cc1 [(R)-5, reference compound]", "Tox, TD50": "> 250 mg/kg"}
{"compound": "COC[C@H](NC(C)=O)C(=O)NCc1ccc(N=[N+]=[N-])cc1 [(S)-5, reference compound]", "Tox, TD50": "> 30 mg/kg"}
{"compound": "C#CCOC[C@H](NC(C)=O)C(=O)NCc1ccccc1 [(S)-7]", "Tox, TD50": ">30 mg/kg"}

Q: Test system behavioral toxicity; read-out Tox, TD50; what value for COC[C@@H](NC(C)=O)C(=O)NCc1ccc(OCc2cccc(F)c2)cc1 [(R)-10] ?
Ans: > 280 mg/kg

Q: Try C#CCOC[C@H](NC(C)=O)C(=O)NCc1ccc(N=[N+]=[N-])cc1 [(S)-8] next.
Ans: >30 mg/kg

Q: Try COC[C@@H](NC(C)=O)C(=O)NCc1ccccc1 [(R)—B, reference compound] next.
Ans: > 500 mg/kg

Values from patent US8933065B2
